assay: inhibitors of TNFa-induced NFkB p65 translocation, primary screen, imaging, HUVEC, MLSMR starter and 10KST1 sets (AID 438); details: HUVEC TNFa-induced p65 nuclear translocation; measured here: nuclei count (cytotoxicity indicator), at 2.08 µM;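 further: compound added about 3h40 before a 20 min TNFalpha stimulation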
Consider the following molecules and their measured cell count readings.

molecule	cell count
Cc1ccc(N2CCN(C(=S)c3ccc(N(C)C)cc3)CC2)cc1	411
CCOC(=O)c1cnc(SC2CC(=O)N(c3ccc(OC)c(OC)c3)C2=O)nc1N (centres undefined)	811
CC1CCCc2sc3nc(NCc4ccco4)n4ncnc4c3c21 (centres undefined)	335
O=C(CNC(=O)c1ccccc1C(=O)O)c1ccccc1	653
O=C(O)CCc1ccc(-c2ccc(Br)cc2)n1CC(=O)O	339
O=C(CN1CCCN(S(=O)(=O)c2ccc(F)cc2)CC1)Nc1ccccc1Br	220
Cc1nc2scc(-c3ccco3)c2c(=O)n1/N=C/N(C)C	453
CCn1c(=S)ccc2ccc(OC)cc21	296
Oc1ccc2ccccc2c1CN1CCN(c2ccccc2F)CC1	564
